Data origin, for the record: patent US9956304B2

method summary: Gd3+ Kd by FLUO-5N titration and competition
Type: binding
reported conditions: 2 mM nitrilotriacetate buffer; read-out: Kd to Gd^3+
Method: The buffer system contained 2 mM nitrilotriacetate. The fluorescence signal of FLUO-5N increased till it was up to saturation state. The fluorescence signal intensity plots were fitted by hill equation. The Kd of ProCA1 variants to Gd^3+ was determined by the competition between ProCA1 variants and FLUO-5N. When the concentrations of FLUO-5N and Gd^3+ were fixed, ProCA1 variants were gradually added to the sample solution to compete Gd^3+ with FLUO-5N. […]
measure name: Kd (pM)
Response body: numeric value in pM, unit text excluded.

query: For the compound O=C(O)CN(CC(=O)O)c1ccc(-c2c3cc(F)c(=O)cc-3oc3cc(O)c(F)cc23)cc1OCCOc1cc([N+](=O)[O-])ccc1N(CC(=O)O)CC(=O)O [FLUO-5N] , report Kd.
result: 5.2
